Experiment: Volume of distribution at steady state in rat at […], iv
Format: ADME, organism-based
Set-up: dose 1.8 mg/kg, route intravenous
Conditions: in vivo, read-out: Vdss
endpointName: Vd (L/kg)
Give just the number in L/kg; leave the unit off.

Q) // returns reported Vd for input Cc1cc(C)cc([C@@H](CC(C)C)NC(=O)c2cc(COc3cc(C)ccc3C)ccc2CCC(=O)O)c1
A) 0.67

---

Test: AUC in rat at 2 mg/kg, iv
Type: ADME, organism-based, Plasma
Design: dose 2 mg/kg, route intravenous
Conditions: plasma
endpointName: AUC
# output: numeric value plus its unit

Q) // returns reported AUC for input Cc1cc(C)cc(Oc2ccc(CCC(=O)O)c(C(=O)N[C@H](CC(C)C)c3cc(C)cc(C)c3)c2)c1
A) 1370 ng·h/mL

---

Experiment: Oral bioavailability in rat at 10 mg/kg
Format: ADME, organism-based
Details: in vivo
Consider the following molecules and their measured bioavailability readings.
# output: numeric value plus its unit

Look over these answered cases.
Cc1cc(C)cc([C@@H](CC(C)C)NC(=O)c2cc(COc3cc(F)ccc3F)ccc2CCC(=O)O)c1 = 18%
Cc1cc(C)cc(Oc2ccc(CCC(=O)O)c(C(=O)N[C@H](CC(C)C)c3cc(C)cc(C)c3)c2)c1 = 21%

Q) // returns reported bioavailability for input Cc1cc(C)cc([C@@H](CC(C)C)NC(=O)c2cc(COc3cc(C)ccc3C)ccc2CCC(=O)O)c1
A) 54%

---

Experiment: AUC in rat at 10 mg/kg, po
Format: ADME, organism-based, Plasma
Set-up: dose 10 mg/kg, route oral
Conditions: plasma
Consider the following molecules and their measured AUC readings.
Give just the number in ng·h/mL; leave the unit off.

Cc1cc(C)cc([C@@H](CC(C)C)NC(=O)c2cc(COc3cc(C)ccc3C)ccc2CCC(=O)O)c1 = 4100
Cc1cc(C)cc([C@@H](CC(C)C)NC(=O)c2cc(COc3ccccc3C)ccc2CCC(=O)O)c1 = 1010

// next entry
Q) // returns reported AUC for input Cc1cc(C)cc(Oc2ccc(CCC(=O)O)c(C(=O)N[C@H](CC(C)C)c3cc(C)cc(C)c3)c2)c1
A) 1430

---

Assay: Cmax in rat at 10 mg/kg, po
Format: ADME, organism-based
Design: dose 10 mg/kg, route oral
Settings: in vivo
endpointName: Cmax (ng/mL)
Give just the number in ng/mL; leave the unit off.

Cc1cc(C)cc([C@@H](CC(C)C)NC(=O)c2cc(COc3cc(F)ccc3F)ccc2CCC(=O)O)c1 = 190

Q) // returns reported Cmax for input Cc1cc(C)cc([C@@H](CC(C)C)NC(=O)c2cc(COc3cc(C)ccc3C)ccc2CCC(=O)O)c1
A) 1350

Q) // returns reported Cmax for input Cc1cc(C)cc(Nc2ccc(CCC(=O)O)c(C(=O)N[C@H](CC(C)C)c3cc(C)cc(C)c3)c2)c1
A) 1370

Q) // returns reported Cmax for input Cc1cc(C)cc(Oc2ccc(CCC(=O)O)c(C(=O)N[C@H](CC(C)C)c3cc(C)cc(C)c3)c2)c1
A) 950

---

Tested on: Rattus norvegicus
Experiment: Oral bioavailability in rat at 10 mg/kg
Assay type: ADME, organism-based
Conditions: in vivo
endpointName: bioavailability (%)
Give just the number in %; leave the unit off.

Q) // returns reported bioavailability for input Cc1cc(C)cc(Nc2ccc(CCC(=O)O)c(C(=O)N[C@H](CC(C)C)c3cc(C)cc(C)c3)c2)c1
A) 25

---

Experiment: AUC in rat at […], iv
Type: ADME, organism-based
Parameters: dose 2.7 mg/kg, route intravenous
Conditions: plasma
endpointName: AUC (ng·h/mL)
Give just the number in ng·h/mL; leave the unit off.

Q) // returns reported AUC for input Cc1cc(C)cc([C@@H](CC(C)C)NC(=O)c2cc(COc3ccccc3C)ccc2CCC(=O)O)c1
A) 890
